B1: TOR1AIP2 (parent)
chain: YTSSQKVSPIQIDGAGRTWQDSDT

Variants of: B1
Assay: protein stability index of a GFP-peptide fusion (GPS, HEK-293T) (PSI 1-6); higher = more stable;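 note: lentivirally expressed fusions sorted by FACS into six bins by GFP to DsRed ratio, PSI derived from sequencing read proportions per bin multiplied by bin number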
Conditions: c terminus: a fixed tail appended
readout: protein stability index

A selection of reference data follows.
INSERT INTO assay_data (mutation_notation, recorded_result) VALUES
  ('G16D', 4.01),
  ('S4N', 3.65),
  ('S8F', 2.75),
  ('G14A', 3.37),
  ('S4E', 3.35),
  ('K6T', 4.03),
  ('G16K', 3.33),
  ('Q11I', 2.72),
  ('T24P', 3.55),
  ('S22A', 4.18);

Could I get protein stability index for every one of these entries?
1. Q20N
2. G14H
3. D23S
4. K6E
5. S22F

RESULT:
1. 4.09
2. 3
3. 2.73
4. 4.82
5. 2.71

Below are 4 variants. Give each one its protein stability index.
1. D23T
2. D21Y
3. D21S
4. Q20H

RESULT:
2.17
2.43
2.95
2.71

Fill in protein stability index for each of the 3 variants listed.
1. G14Q
2. V7T
3. I12M

RESULT:
1: 3.57; 2: 3.78; 3: 3.5
